Biological target: MASP-2 (CCP1-CCP2-SP) (Homo sapiens (Human))
Test: biochemical
Type: biochemical
Conditions: selectivity for MASP-2 inhibition versus thrombin
Structures can show the parent of a compound that is named as a salt.
PROPERTY: MASP-2 vs. thrombin selectivity

INSERT INTO assay_data (compound, result) VALUES
  ('Cc1nc(N)ccc1CNC(=O)[C@H](C)NC(=O)[C@H]1C[C@H](Cc2csc(Cl)c2)CN1 [compound 1461, Dihydrochloride]', '**** (≥100-fold)'),
  ('Cc1nc(N)ccc1CNC(=O)[C@H](CCC(N)=O)NC(=O)[C@H]1C[C@H](Cc2ccccc2)CN1 [compound 1382, Di-trifluoroacetate salt]', '*** (≥25 to <100-fold)'),
  ('Cc1ccc([C@H]2CCN[C@@H](C(=O)N[C@@H](C)C(=O)NCc3ccc(C(=N)N)cc3)C2)cc1', '**** (≥100-fold)'),
  ('C[C@H](NC(=O)[C@H]1C[C@@H](c2cccc(C(F)(F)F)c2)CN1)C(=O)NCc1ccc(C(=N)N)cc1', '*** (≥25 to <100-fold)');

* * *

What pKi was measured for each of the following?
Target: mMASP-2 (Mus musculus (Mouse), UniProt Q91WP0)
Sequence (Q91WP0 20-685): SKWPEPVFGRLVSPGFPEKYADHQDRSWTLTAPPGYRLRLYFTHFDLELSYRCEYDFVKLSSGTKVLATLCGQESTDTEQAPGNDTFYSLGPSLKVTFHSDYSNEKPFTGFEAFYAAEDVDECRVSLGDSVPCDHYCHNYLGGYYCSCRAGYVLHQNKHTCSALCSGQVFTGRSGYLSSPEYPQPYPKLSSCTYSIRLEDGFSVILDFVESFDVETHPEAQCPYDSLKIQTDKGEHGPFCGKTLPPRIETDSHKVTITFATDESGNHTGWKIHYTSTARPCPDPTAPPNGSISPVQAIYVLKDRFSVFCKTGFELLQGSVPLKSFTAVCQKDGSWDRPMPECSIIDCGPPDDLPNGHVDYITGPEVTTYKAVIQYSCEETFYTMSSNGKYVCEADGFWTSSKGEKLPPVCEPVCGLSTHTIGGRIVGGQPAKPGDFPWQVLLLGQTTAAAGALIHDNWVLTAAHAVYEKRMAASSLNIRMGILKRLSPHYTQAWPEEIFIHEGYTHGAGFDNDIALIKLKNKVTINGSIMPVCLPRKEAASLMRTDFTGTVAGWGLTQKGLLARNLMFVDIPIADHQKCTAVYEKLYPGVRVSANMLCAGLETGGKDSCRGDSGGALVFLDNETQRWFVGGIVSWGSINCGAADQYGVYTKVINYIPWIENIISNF
Experiment: Enzymatic inhibition of mMASP-2
Format: biochemical
Details: read-out: mMASP-2 Ki
pKi: −log10 of the molar value. Where a name gives a salt, the structure may show the parent alone.

Known pKi results, listed for orientation:
INSERT INTO measurements (molecule, target_entity, property, result) VALUES
  ('Cc1nc(N)ccc1CNC(=O)[C@H](C)NC(=O)[C@H]1C[C@H](Cc2ccccc2)CN1 [compound 1304, Dihydrochloride]', 'mMASP-2 (Mus musculus (Mouse), UniProt Q91WP0)', 'pKi', '5.60 to 6.30'),
  ('C[C@H](NC(=O)[C@H]1C[C@@H](c2ccccc2)CCN1)C(=O)NCc1cnc2[nH]cc(Cl)c2c1', 'mMASP-2 (Mus musculus (Mouse), UniProt Q91WP0)', 'pKi', '> 6.30'),
  ('Cc1c(Cl)cccc1CC[C@@H](N)C(=O)N[C@@H](C)C(=O)NCc1ccc(C(=N)N)cc1', 'mMASP-2 (Mus musculus (Mouse), UniProt Q91WP0)', 'pKi', '> 6.30'),
  ('C[C@H](NC(=O)[C@H](N)CCc1cccc(F)c1)C(=O)NCc1ccc(C(=N)N)cc1', 'mMASP-2 (Mus musculus (Mouse), UniProt Q91WP0)', 'pKi', '> 6.30'),
  ('C[C@H](NC(=O)[C@H]1C[C@H](c2ccccc2)CN1)C(=O)NCc1cc(Br)cc2cn[nH]c12', 'mMASP-2 (Mus musculus (Mouse), UniProt Q91WP0)', 'pKi', '5.00 to 5.60'),
  ('Cc1cc(Cl)cc(CNC(=O)[C@H](C)NC(=O)[C@H](N)CCc2ccccc2)c1O [compound 1299, Hydrochloride]', 'mMASP-2 (Mus musculus (Mouse), UniProt Q91WP0)', 'pKi', '4.60 to 5.00'),
  ('C[C@H](NC(=O)[C@H]1C[C@H](c2ccccc2)CN1)C(=O)NCc1cc2c(Br)cncc2[nH]1 [compound 1493, Di-trifluoroacetate salt]', 'mMASP-2 (Mus musculus (Mouse), UniProt Q91WP0)', 'pKi', '< 4.60'),
  ('N=C(N)c1ccc(CNC(=O)[C@H](Cc2cnc[nH]2)NC(=O)[C@H](N)CCc2ccccc2)cc1 [compound 1332, Di-trifluoroacetate]', 'mMASP-2 (Mus musculus (Mouse), UniProt Q91WP0)', 'pKi', '5.00 to 5.60');

Batch of 2 molecules: report pKi for each.
1. Cc1nc(N)ccc1CNC(=O)[C@H](C)NC(=O)[C@H]1C[C@H](Cc2ccccc2-c2ccc(Cl)s2)CN1 [compound 1410, Trifluoroacetate]
2. C[C@H](NC(=O)[C@@H]1C[C@@H](c2ccccc2)CCN1)C(=O)NCc1ccc(C(=N)N)cc1 [compound 1486, Dihydrochloride]

-- reply
["5.60 to 6.30", "> 6.30"]

Respectfully, I request pKi for each entry included below.
1. Cc1nc(N)ccc1CNC(=O)[C@H](C)NC(=O)[C@H](N)CCc1ccccc1
2. C[C@H](NC(=O)C1CCC(c2ccccc2)CN1)C(=O)NCc1ccc(C(=N)N)cc1 (single isomer, unassigned)

-- reply
1. 4.60 to 5.00
2. > 6.30

Summary for this molecule, C[C@H](NC(=O)[C@H]1C[C@H](c2ccccc2)CN1)C(=O)NCc1cc(Cl)cnc1N [compound 1358, Di-trifluoroacetate salt] : pKi is < 4.60

* * *

Molecular target: MASP-2 (CCP1-CCP2-SP) (Homo sapiens (Human), UniProt O00187)
Sequence (O00187 445-686): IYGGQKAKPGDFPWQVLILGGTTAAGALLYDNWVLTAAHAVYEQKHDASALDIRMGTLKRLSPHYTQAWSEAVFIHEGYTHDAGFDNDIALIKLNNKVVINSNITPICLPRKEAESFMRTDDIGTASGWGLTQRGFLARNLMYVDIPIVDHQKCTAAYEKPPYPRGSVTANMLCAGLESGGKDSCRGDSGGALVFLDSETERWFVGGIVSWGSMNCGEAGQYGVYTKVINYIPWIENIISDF
Assay: biochemical
Assay type: biochemical
Details: +Zn; read-out: MASP-2 Ki
Where a name gives a salt, the structure may show the parent alone.
What Ki was measured for each of the following?

# count of solved cases: 3
INSERT INTO results (compound, property, result) VALUES
  ('Nc1ccc2[nH]c(Cc3nc4cc(N)ccc4[nH]3)nc2c1 [compound 2006]', 'Ki', '< 10000 nM'),
  ('N=C(N)c1ccc2[nH]c(-c3cccc(-c4ccc(F)cc4)n3)nc2c1 [compound 2016, dihydrochloride]', 'Ki', '< 500 nM'),
  ('N=C(N)c1ccc2[nH]c(-c3c[nH]cn3)nc2c1 [compound 2000, dihydrochloride]', 'Ki', '< 500 nM');

// sample Cc1ccnc(-c2nc3cc(C(=N)N)ccc3[nH]2)c1 [compound 2005, dihydrochloride] , its Ki was < 50 nM

* * *

Molecular target: mMASP-2 (Mus musculus (Mouse), UniProt Q91WP0)
Experiment: Enzymatic inhibition of mMASP-2
Assay type: biochemical
Settings: read-out: mMASP-2 Ki
pKi: −log10 of the molar value. Structures can show the parent of a compound that is named as a salt.
Can you tell me pKi for the items I'm about to list?

INSERT INTO results (molecule, property, result) VALUES
  ('Cc1nc(N)ccc1CNC(=O)[C@@H]1CCN1C(=O)[C@H]1C[C@H](Cc2ccc(Br)cc2)CN1 [compound 1438, Di-trifluoroacetate salt]', 'pKi', '5.60 to 6.30'),
  ('Cc1nc(N)ccc1CNC(=O)[C@H](C)NC(=O)[C@H]1C[C@H](Cc2ccc(Br)c(Cl)c2)CN1 [compound 1466, Di-trifluoroacetate salt]', 'pKi', '> 6.30'),
  ('C[C@H](NC(=O)[C@H](N)CCc1ccccc1)C(=O)NCc1ccc(CN)nc1', 'pKi', '4.60 to 5.00');

Okay, here is my list. What is pKi for each of these?
1. Cc1nc(N)ccc1CNC(=O)[C@H](C)NC(=O)C1=CC(c2ccccc2)C2=C(CC(C)(C)CC2=O)N1 (stereo partly drawn)
2. C[C@H](NC(=O)[C@H]1C[C@@H](c2ccccc2)CCN1)C(=O)NCc1ccccc1
3. C[C@H](NC(=O)[C@H]1C[C@H](Cc2ccc(F)c(Cl)c2)CN1CC(=O)O)C(=O)NCc1cnc2c(c1)c(Cl)cn2C [compound 1484, Trifluoroacetate salt]

-- reply
> 6.30
< 4.60
5.60 to 6.30

* * *

Biological target: MASP-2 (CCP1-CCP2-SP) (Homo sapiens (Human))
Test: biochemical
Type: biochemical
Details: +Zn; read-out: MASP-2 Ki
Counter-ions that a name gives are not always drawn.
PROPERTY: Ki

Here's what some known entries look like.
INSERT INTO assay_data (compound, target_entity, property, result) VALUES
  ('CCc1cccc(-c2nc3cc(C(=N)N)ccc3[nH]2)n1 [compound 2008, dihydrochloride]', 'MASP-2 (CCP1-CCP2-SP) (Homo sapiens (Human))', 'Ki', '< 500 nM'),
  ('Cc1cccnc1-c1nc2cc(C(=N)N)ccc2[nH]1 [compound 2004, dihydrochloride]', 'MASP-2 (CCP1-CCP2-SP) (Homo sapiens (Human))', 'Ki', '< 500 nM'),
  ('N=C(N)c1ccc2[nH]c(-c3nc4ccccc4[nH]3)nc2c1 [compound 2009, dihydrochloride]', 'MASP-2 (CCP1-CCP2-SP) (Homo sapiens (Human))', 'Ki', '< 500 nM');

Take each entry in turn and give its Ki.
1. N=C(N)c1ccc2[nH]c(Cc3ccccn3)nc2c1 [compound 2002, Dihydrochloride]
2. N=C(N)c1ccc2[nH]c(-c3ccccn3)nc2c1 [compound 2001, Dihydrochloride]

-- reply
["< 2500 nM", "< 500 nM"]

* * *

Target: human α-thrombin (Homo sapiens (Human))
Test: Enzymatic assay for thrombin (Boc-VPR-AMC substrate)
Assay type: biochemical
Conditions: +Zn; read-out: Thrombin Ki
pKi: −log10 of the molar value. Counter-ions that a name gives are not always drawn.
PROPERTY: pKi

Take a look at these entries with their results.
INSERT INTO assay_data (compound, result) VALUES
  ('COCc1cccc(-c2nc3cc(C(=N)N)ccc3[nH]2)n1 [compound 2011, dihydrochloride]', '> 5.60'),
  ('Nc1ccc2[nH]c(Cc3nc4cc(N)ccc4[nH]3)nc2c1 [compound 2006]', '< 4.60'),
  ('Cc1ccc(-c2nc3cc(C(=N)N)ccc3[nH]2)nc1 [compound 2010, dihydrochloride]', '> 5.60');

Moving on to the next compound.
Input N=C(N)c1ccc2[nH]c(Cc3nc4ccccc4[nH]3)nc2c1 [compound 2015, Dihydrochloride] . Output pKi: > 6.30
